# reported Activity; entries follow
Target: UniProt P29474
Sequence (P29474 whole entry): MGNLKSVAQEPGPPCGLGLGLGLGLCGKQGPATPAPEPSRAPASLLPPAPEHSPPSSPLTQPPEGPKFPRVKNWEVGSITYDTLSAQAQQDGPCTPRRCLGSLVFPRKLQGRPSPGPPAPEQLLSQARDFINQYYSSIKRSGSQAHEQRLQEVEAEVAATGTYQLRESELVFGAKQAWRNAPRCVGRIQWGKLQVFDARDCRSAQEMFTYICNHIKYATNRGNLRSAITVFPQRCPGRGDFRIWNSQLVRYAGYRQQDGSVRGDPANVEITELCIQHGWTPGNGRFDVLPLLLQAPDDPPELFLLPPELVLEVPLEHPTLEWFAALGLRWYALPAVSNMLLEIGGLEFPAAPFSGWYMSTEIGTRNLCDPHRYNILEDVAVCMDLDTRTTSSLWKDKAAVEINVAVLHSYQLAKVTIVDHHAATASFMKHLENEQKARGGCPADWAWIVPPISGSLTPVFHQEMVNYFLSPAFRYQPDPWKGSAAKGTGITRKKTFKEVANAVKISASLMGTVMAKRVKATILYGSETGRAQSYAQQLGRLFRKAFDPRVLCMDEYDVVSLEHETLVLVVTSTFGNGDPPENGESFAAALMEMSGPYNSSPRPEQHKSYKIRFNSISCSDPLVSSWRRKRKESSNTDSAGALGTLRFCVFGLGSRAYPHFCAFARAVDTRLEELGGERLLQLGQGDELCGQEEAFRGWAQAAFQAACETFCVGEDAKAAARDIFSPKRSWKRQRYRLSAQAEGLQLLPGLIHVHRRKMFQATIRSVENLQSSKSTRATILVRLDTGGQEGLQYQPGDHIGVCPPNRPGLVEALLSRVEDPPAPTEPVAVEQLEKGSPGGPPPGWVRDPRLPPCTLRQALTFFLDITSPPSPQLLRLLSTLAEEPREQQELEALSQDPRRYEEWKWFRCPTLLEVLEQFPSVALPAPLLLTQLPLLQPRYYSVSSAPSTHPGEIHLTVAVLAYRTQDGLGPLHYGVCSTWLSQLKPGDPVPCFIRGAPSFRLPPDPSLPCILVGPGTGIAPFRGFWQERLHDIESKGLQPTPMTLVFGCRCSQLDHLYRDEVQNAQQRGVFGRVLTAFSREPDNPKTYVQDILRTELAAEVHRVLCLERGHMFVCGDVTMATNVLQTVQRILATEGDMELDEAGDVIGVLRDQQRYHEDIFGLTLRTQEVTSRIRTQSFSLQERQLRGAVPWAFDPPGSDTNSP
Test: Inhibition of human eNOS assessed as residual activity at 100 uM by Griess assay relative to control

CC1=CC=CC2=NCC(C(=O)c3ccc(-c4ccc(Br)cc4)cc3)CN12.[O-][Cl+3]([O-])([O-])O (stereo not drawn) = 84%

Q) Reported Activity for CC1=CC2=NCC(C(=O)c3ccc(OCc4ccccc4)cc3)CN2C=C1 (stereo not drawn) : what is it?
A) 75%

Q) Reported Activity for CC(=N)NCc1cccc(CN)c1 : what is it?
A) 105%

* * *

Molecular target: Nitric oxide synthase 3 (Bos taurus)
Assay: Inhibition of bovine eNOS expressed in insect Sf9 cells assessed as residual activity at 100 uM by Griess assay relative to control
Recorded metric: Activity
Entry format: amount then unit.

Worked cases, answers included:
O=C(c1ccccc1)C1CN=C2C=CC=CN2C1 (stereo unspecified) = 91%
COc1ccc(C(=O)C2CN=C3C=CC=CN3C2)cc1 (stereo unspecified) = 90%
CC1=CC=CN2CC(C(=O)c3ccccc3)CN=C12 (stereo unspecified) = 92%
CC1=CC2=NCC(C(=O)c3ccc(Br)cc3)CN2C=C1 (stereo unspecified) = 72%
COc1ccc(C(=O)C2CN=C3C=CC=CN3C2)cc1OC (stereo unspecified) = 91%

In the following, a different compound is considered.
Q) Reported Activity for COc1ccc(C(=O)C2CN=C3C=CC=C(C)N3C2)cc1OC.[O-][Cl+3]([O-])([O-])O (stereo unspecified) : what is it?
A) 90%
